System: HL-60(TB) leukemia
Test: NCI tumour cell line growth inhibition, 48 h
observable: TGI

Form: compound = CCOC12SC(=Nc3ccc(C)cc3)NN1C(=S)N(C)N=C2C (stereo unspecified) ; TGI = > 100 µM

Form: compound = CCOC(=O)C(=O)Nc1ccc(Cl)c(C(F)(F)F)c1 ; TGI = > 100 µM

Form: compound = COc1ccc(-c2csc3c2-n2cccc2C3=O)cc1O ; TGI = 0.0955 µM

Form: compound = Cc1cc([N+](=O)[O-])ccc1N=NC(=O)NNc1ccc([N+](=O)[O-])cc1C ; TGI = 40.9 µM

Form: compound = CC(C)(C)OC(=O)NCC(=O)N1CCCN(C(=O)CNC(=O)OC(C)(C)C)CC1 ; TGI = > 100 µM

Form: compound = COc1ccc(-c2ccccc2)cc1-c1c(Nc2cc(Cl)cc(Cl)c2O)c(=O)c1=O ; TGI = 2.54 µM

Form: compound = COc1cc2ncn(-c3cc(OCc4ccccc4S(C)(=O)=O)c(C#N)s3)c2cc1OC ; TGI = > 25 µM

Form: compound = O=C1C(N=Nc2ccc(-c3nc4ccccc4[nH]3)cc2)NC(=S)N1c1ccccc1 (stereo unspecified) ; TGI = > 100 µM

Form: compound = Cc1cc(C)c2c(N)c3cccc(C)c3nc2n1 ; TGI = 16.4 µM

Form: compound = CC1(C)Cc2c(Br)c(Br)c(Br)c(OCC(O)CN3CCOCC3)c2O1 (stereo unspecified) ; TGI = 17.9 µM

Form: compound = COc1ccc(C(O)/C(=C/n2ccnc2)c2ccccc2)cc1OC (stereo unspecified) ; TGI = > 100 µM

Form: compound = O=C1OCC2=C1C(c1cccc(C(F)(F)F)c1)c1cc3c(cc1N2CCO)CCC3 (stereo unspecified) ; TGI = 0.427 µM

Form: compound = CC1CC2(CCC1OCc1ccccc1)OCCO2 (stereo unspecified) ; TGI = > 100 µM

Form: compound = OCC(O)C(O)C(O)C(/C=N\Nc1ncnc2ccc(Br)cc12)=N/Nc1ncnc2ccc(Br)cc12 (stereo unspecified) ; TGI = > 100 µM

Form: compound = CN(C)CCNC(=O)c1nc([N+](=O)[O-])cn1C ; TGI = > 100 µM

Form: compound = COC(=O)c1ccccc1CC(Cc1ccccc1)C(=O)OC (stereo unspecified) ; TGI = 55.9 µM

Form: compound = CCOc1cc(C2SCC(=O)N2c2nc3cc4sc(N5C(=O)CSC5c5ccc(O)c(OCC)c5)nc4cc3s2)ccc1O (stereo unspecified) ; TGI = > 100 µM

Form: compound = COc1cc2c(cc1Cl)n([O-])c(C#N)c(N1CCN(c3ccc([N+](=O)[O-])cc3)CC1)[n+]2=O ; TGI = > 100 µM

Form: compound = CCOC(=O)C(NCc1cccc(C(F)(F)F)c1)(NC(=O)c1ccccc1)C(F)(F)F (stereo unspecified) ; TGI = > 100 µM

Form: compound = COc1ccccc1NC(=O)C1=C(C)NC(C)=C(C(=O)Nc2ccccc2OC)C1c1cccc2c1OCO2 ; TGI = > 100 µM

Form: compound = Cc1ccc(C[P+](c2ccccc2)(c2ccccc2)c2ccccc2)cc1 ; TGI = 3.36 µM

* * *

System: CCRF-CEM leukemia
Assay: NCI tumour cell line growth inhibition, 48 h
observable: GI50

Form: molecule = N/C(=N\c1nc2ccccc2s1)NC(=O)Nc1cccc2ccccc12 ; GI50 = 0.36 µM

Form: molecule = OCc1ccc(Oc2c3ccccc3nc3occc23)cc1 ; GI50 = 31.3 µM

Form: molecule = Nc1ccc(-n2c(=O)oc3ccc(Cl)cc3c2=O)c(Cl)c1 ; GI50 = 0.139 µM

* * *

Tested on: SK-OV-3 ovarian
Test: NCI tumour cell line growth inhibition, 48 h
Classify by measured TGI: Yes if it is equal to or exceeds 9 µM, No if it is smaller.

Ask: In plain terms: is recorded TGI at least 9 µM for COc1cc(OC)cc(-c2cncn2-c2ccc(-c3nc4cc(OC)cc(OC)c4s3)cc2)c1 ?
Result: Yes

Ask: In plain terms: is recorded TGI at least 9 µM for COc1ccc(-c2csc3c2-n2cccc2C3=O)cc1O ?
Result: Yes

Ask: In plain terms: is recorded TGI at least 9 µM for COc1ccc2[nH]cc(-c3nc(-c4c[nH]c5ccncc45)cs3)c2c1 ?
Result: Yes

Ask: In plain terms: is recorded TGI at least 9 µM for O=[N+]([O-])c1cccc(-c2cc(-c3cc(Br)ccc3O)[nH]n2)c1 ?
Result: No

Ask: In plain terms: is recorded TGI at least 9 µM for CCOC(=O)C(NCc1cccc(C(F)(F)F)c1)(NC(=O)c1ccccc1)C(F)(F)F (stereo unspecified) ?
Result: Yes

Ask: In plain terms: is recorded TGI at least 9 µM for COC(=O)CCN(CCC(=O)OC)C1CC1 ?
Result: Yes

Ask: In plain terms: is recorded TGI at least 9 µM for Oc1cc(Cl)ccc1Cc1ccc(Cl)cc1O ?
Result: Yes

Ask: In plain terms: is recorded TGI at least 9 µM for O=C(Nc1cccc(-n2ccc3c(NC(=O)c4ccccc4)nccc32)c1)c1cc(N2CCOCC2)cc(C(F)(F)F)c1 ?
Result: Yes

Ask: In plain terms: is recorded TGI at least 9 µM for CC(C)=CC1CC(C)C2(CCC3(C)CC4C(C(=O)CC4(C)O)/C(C=O)=C\CC32)O1 (stereo unspecified) ?
Result: No

Ask: In plain terms: is recorded TGI at least 9 µM for N#Cc1c(N2CCN(c3ccc([N+](=O)[O-])cc3)CC2)[n+](=O)c2ccc(Cl)cc2n1[O-] ?
Result: Yes

Ask: In plain terms: is recorded TGI at least 9 µM for CCOC(=O)C(=Cn1c(=S)[nH]c2ccc([N+](=O)[O-])cc21)C(=O)OCC ?
Result: Yes

Ask: In plain terms: is recorded TGI at least 9 µM for CCOC(=O)C(C)c1nc2cc(N3CCN(C)CC3)c(F)cc2[nH]c1=O (stereo unspecified) ?
Result: Yes

Ask: In plain terms: is recorded TGI at least 9 µM for Oc1ccc(CN(Cc2ccc(C(F)(F)F)cc2)Cc2ccc(O)c3ncccc23)c2cccnc12 ?
Result: Yes

Ask: In plain terms: is recorded TGI at least 9 µM for CC(=O)NC1=C(NCc2ccc(Cl)cc2)C(=O)c2ccccc2C1=O ?
Result: Yes

Ask: In plain terms: is recorded TGI at least 9 µM for COc1ccc2c(c1)-c1nn(CCN(C)C)c3ccc(C(=O)NCCCN(C)CCCNC(=O)c4ccc5c6c(nn5CCN(C)C)-c5cc(OC)ccc5Nc46)c(c13)N2 ?
Result: No

Ask: In plain terms: is recorded TGI at least 9 µM for O=C1OCC2=C1C(c1cccc(C(F)(F)F)c1)c1cc3c(cc1N2CCO)CCC3 (stereo unspecified) ?
Result: No

* * *

Test system: HOP-62 NSCLC
Test: NCI tumour cell line growth inhibition, 48 h
Answer each item with its documented TGI.

Form: molecule = CN(C)CCNC(=O)c1nc([N+](=O)[O-])cn1C ; TGI = > 100 µM

Form: molecule = O=C(Nc1cccc(-n2ccc3c(NC(=O)c4ccccc4)nccc32)c1)c1cc(N2CCOCC2)cc(C(F)(F)F)c1 ; TGI = > 100 µM

Form: molecule = NCCCCNC1(c2cc3ccccc3s2)CCCCC1 ; TGI = 20 µM

Form: molecule = CN(C)CC(NC(NCS)C(=O)NCCNc1ccc(NCCNC(=O)C(NCS)NC(CN(C)C)OCCl)c2c1C(=O)c1c(O)ccc(O)c1C2=O)OCCl (stereo unspecified) ; TGI = 0.482 µM

Form: molecule = Cc1cc2c(cc1Br)C1(C)CCC(C)C1(C)O2 (stereo unspecified) ; TGI = > 100 µM

Form: molecule = CCN1CCC(CC(=O)Nc2n[nH]c3nc(-c4cccs4)c(Br)cc23)CC1 ; TGI = > 25 µM

* * *

Tested on: NCI-H522 lung
Assay: NCI tumour cell line growth inhibition, 48 h
Answer each item with its documented TGI.
# output: bare number, implied unit µM

Response field TGI (NCI-H522 lung) for item COc1cc2c3c(n(CCCNCCNCCCN)c(=O)c2cc1OC)-c1cc2c(cc1C3=O)OCO2 : 2.86

Response field TGI (NCI-H522 lung) for item COC1/C=C/C(C)C(C(C)C(OC)C(C)CCC(=O)C(C)C(C/C=C/N(C)C=O)OC)OC(=O)/C=C/C=C(\C)CC(OC)C(OC)C2=CC(=O)O[C@@H](C(C)C(OC)CC(OC)/C=C/C(C)C(O)C1)[C@H]2O (stereo partly drawn) : 0.286

Response field TGI (NCI-H522 lung) for item CC(=O)NC1=C(C)C(=O)c2c(nc3n2CC[C@H]3OC(C)=O)C1=O : 3.73

Response field TGI (NCI-H522 lung) for item COc1ccc(C2=CN3CCC[C@H]3C=C2c2cc(O)c(OC)c(OC)c2)cc1OC : 0.026

Response field TGI (NCI-H522 lung) for item OCCO[P+]1(OCCO)n2c3ccc2C(c2ccccc2)=C2C=CC(=N2)C(c2ccccc2)=c2ccc(n21)=C(c1ccccc1)C1=NC(=C3c2ccccc2)C=C1 : 0.2

Response field TGI (NCI-H522 lung) for item Oc1ccc(CN(Cc2ccc(C(F)(F)F)cc2)Cc2ccc(O)c3ncccc23)c2cccnc12 : 0.588

Response field TGI (NCI-H522 lung) for item C/C(N=Nc1nc2ccccc2o1)=C1/C=CC=CN1O : 26.7

Response field TGI (NCI-H522 lung) for item OCC(O)C(O)C(O)C(/C=N\Nc1ncnc2ccc(Br)cc12)=N/Nc1ncnc2ccc(Br)cc12 (stereo not drawn) : 54.9

Response field TGI (NCI-H522 lung) for item CCOC(=O)/C(=C\c1ccc(F)cc1)C(C)=O : 29.5

Response field TGI (NCI-H522 lung) for item COc1ccc2c(c1)-c1nn(CCN(C)C)c3ccc(C(=O)NCCCN(C)CCCNC(=O)c4ccc5c6c(nn5CCN(C)C)-c5cc(OC)ccc5Nc46)c(c13)N2 : 0.273

Response field TGI (NCI-H522 lung) for item CO/C(=N\N=C\c1cccc(C(F)(F)F)c1)c1ccncc1 : 30.3

Response field TGI (NCI-H522 lung) for item Cc1cc2nc3c4cccc(O)c4n(CCN(C)C)c3nc2cc1C : 6.49

Response field TGI (NCI-H522 lung) for item COC(=O)[C@]12CC=C3O[C@@H]4OC5(CCCCC5)O[C@@H]4[C@H]3C1C(=O)C=CC2=O (stereo partly drawn) : 15.4

Response field TGI (NCI-H522 lung) for item COC(=O)[C@@H]1CCCN1C(=O)[C@H]1CCCN1C(=O)[C@@H](Cc1c[nH]c2ccccc12)NC(=S)Nc1cc(C(F)(F)F)cc(C(F)(F)F)c1 : 6.65

Response field TGI (NCI-H522 lung) for item COc1cc2c(cc1OCCCN1CCN(c3cc(=O)oc4c(C)c(OC)ccc34)CC1)N=C[C@@H]1CCCN1C2=O : 1.93

Response field TGI (NCI-H522 lung) for item Cc1ccc(/C(=C/C=C(C#N)C#N)Sc2ccccn2)cc1 : 19.6

Response field TGI (NCI-H522 lung) for item CC[C@@]1(O)C(=O)OCc2c1cc1n(c2=O)Cc2cc3c(NC(=O)CN)cccc3nc2-1 : 56.3

Response field TGI (NCI-H522 lung) for item CCCCCCCCC/C=C1\CC(CO)(COC(=O)c2ccccc2)OC1=O (stereo not drawn) : 33.4
